Data credit: paper PMC9021956

Listing: inhibition at 15 µM of selected compounds
- STUDY_TARGET: HLA-A1101 (Homo sapiens, UniProt P04439, A114D/D185E/E176A/F33Y/L180Q/S129P/T187R)
- Construct: expressed in transfected cells; host or cells: HMy2.CIR
- EXPERIMENTAL_PROTOCOL: cell-based
- Assay type: binding
- DETAILS: HLA-A1101 HMy2.CIR cells; competitor peptide 15μM; 24 hours; flow cytometry; read-out: 15μM Inhibition (%)
Residues, ends and D or L forms follow the SMILES beside them.
Just the number in %, nothing appended.

As a guide, the following entries are already answered.
Task: Read the entry CC[C@H](C)[C@H](NC(=O)[C@@H](NC(=O)[C@H](CC(C)C)NC(=O)[C@@H](NC(=O)[C@H](CCCNC(=N)N)NC(=O)[C@@H](NC(=O)[C@H](CC(C)C)NC(=O)[C@H](CC(C)C)NC(=O)[C@@H](N)Cc1ccccc1)[C@@H](C)O)[C@@H](C)CC)[C@@H](C)O)C(=O)O [Epitope P2] and write its reported inhibition at 15 µM.
Result: 8.5

Task: Read the entry CC(C)C[C@H](NC(=O)[C@H](CC(C)C)NC(=O)[C@@H](N)Cc1ccccc1)C(=O)N[C@@H](C)C(=O)N[C@@H](CCC(N)=O)C(=O)N[C@@H](Cc1ccccc1)C(=O)N[C@H](C(=O)N[C@@H](CO)C(=O)N[C@@H](C)C(=O)O)[C@@H](C)O [Epitope P76] and write its reported inhibition at 15 µM.
Result: 0

Task: Read the entry CSCC[C@H](NC(=O)[C@@H](N)CO)C(=O)N[C@@H](Cc1ccc(O)cc1)C(=O)N1CCC[C@H]1C(=O)N[C@@H](CO)C(=O)N[C@@H](CS)C(=O)N[C@@H](CS)C(=O)N[C@@H](CS)C(=O)N[C@H](C(=O)N[C@@H](CCCCN)C(=O)O)[C@@H](C)O [Epitope P13] (H-SMYPSCCCTK-OH; N-terminus and C-terminus assumed) and write its reported inhibition at 15 µM.
Result: 83.9

Task: Read the entry CC(C)C[C@H](NC(=O)[C@H](CC(N)=O)NC(=O)CNC(=O)[C@H](Cc1c[nH]cn1)NC(=O)[C@H](C)NC(=O)[C@H](CC(N)=O)NC(=O)[C@@H](NC(=O)[C@@H](N)[C@@H](C)O)C(C)C)C(=O)N1CCC[C@H]1C(=O)N[C@@H](CCCCN)C(=O)O [Epitope P47] (H-TVNAHGNLPK-OH; N-terminus and C-terminus assumed) and write its reported inhibition at 15 µM.
Result: 90.3

Task: Read the entry CC[C@H](C)[C@H](NC(=O)[C@H](CO)NC(=O)[C@H](CO)NC(=O)[C@@H](NC(=O)[C@@H]1CCCN1C(=O)[C@H](CO)NC(=O)[C@H](C)N)[C@@H](C)CC)C(=O)N[C@@H](Cc1ccccc1)C(=O)N[C@@H](CO)C(=O)N[C@@H](CCCNC(=N)N)C(=O)O [Epitope P14] (H-ASPISSIFSR-OH; N-terminus and C-terminus assumed) and write its reported inhibition at 15 µM.
Result: 45.3

We now examine a further compound.
Task: Read the entry CC(C)C[C@H](NC(=O)[C@@H]1CCCN1C(=O)[C@H](CC(C)C)NC(=O)[C@H](Cc1ccc(O)cc1)NC(=O)[C@H](CCCCN)NC(=O)[C@@H](NC(=O)[C@@H](NC(=O)[C@@H](N)CCCCN)C(C)C)[C@@H](C)O)C(=O)N[C@@H](CC(=O)O)C(=O)N[C@@H](CCCCN)C(=O)O [Epitope P15] (H-KVTKYLPLDK-OH; N-terminus and C-terminus assumed) and write its reported inhibition at 15 µM.
Result: 78.8

* * *

- STUDY_TARGET: HLA-A0301 (Homo sapiens, UniProt P04439)
- Construct: expressed in transfected cells; host or cells: HMy2.CIR
- EXPERIMENTAL_PROTOCOL: Peptide competitive binding assay, transfected HMy2.CIR cells, reference ATFQFK(FITC)VER
- DETAILS: HLA-A0301 HMy2.CIR cells; competitor peptide 5μM; 24 hours; flow cytometry; read-out: 5μM Inhibition (%)
Residues, ends and D or L forms follow the SMILES beside them.
Listing: inhibition at 5 µM of selected compounds
Just the number in %, nothing appended.

As a guide, the following entries are already answered.
Task: Read the entry CC(C)C[C@H](NC(=O)[C@@H](NC(=O)[C@H](CCC(N)=O)NC(=O)[C@H](Cc1c[nH]cn1)NC(=O)[C@H](C)NC(=O)[C@H](CC(N)=O)NC(=O)[C@@H](NC(=O)[C@@H](N)[C@@H](C)O)C(C)C)C(C)C)C(=O)N1CCC[C@H]1C(=O)N[C@@H](CCCCN)C(=O)O [Epitope P48] (H-TVNAHQVLPK-OH; N-terminus and C-terminus assumed) and write its reported inhibition at 5 µM.
Result: 67.9

Task: Read the entry CSCC[C@H](NC(=O)[C@@H](N)CCSC)C(=O)N[C@@H](Cc1c[nH]c2ccccc12)C(=O)N[C@@H](Cc1ccccc1)C(=O)N[C@@H](Cc1c[nH]c2ccccc12)C(=O)NCC(=O)N1CCC[C@H]1C(=O)N[C@@H](CO)C(=O)N[C@@H](CC(C)C)C(=O)O [Epitope P71] (H-MMWFWGPSL-OH; N-terminus and C-terminus assumed) and write its reported inhibition at 5 µM.
Result: 22.2

Task: Read the entry CC(C)C[C@H](NC(=O)[C@H](CC(N)=O)NC(=O)CNC(=O)[C@H](Cc1c[nH]cn1)NC(=O)[C@H](C)NC(=O)[C@H](CC(N)=O)NC(=O)[C@@H](NC(=O)[C@@H](N)[C@@H](C)O)C(C)C)C(=O)N1CCC[C@H]1C(=O)N[C@@H](CCCCN)C(=O)O [Epitope P47] (H-TVNAHGNLPK-OH; N-terminus and C-terminus assumed) and write its reported inhibition at 5 µM.
Result: 65.8

Continuing:
Task: Read the entry CSCC[C@H](NC(=O)[C@@H](N)CCSC)C(=O)N[C@@H](Cc1c[nH]c2ccccc12)C(=O)N[C@@H](Cc1ccc(O)cc1)C(=O)N[C@@H](Cc1c[nH]c2ccccc12)C(=O)NCC(=O)N1CCC[C@H]1C(=O)N[C@@H](CO)C(=O)N[C@@H](CC(C)C)C(=O)N[C@@H](Cc1ccc(O)cc1)C(=O)O [Epitope P108] and write its reported inhibition at 5 µM.
Result: 26.1

Task: Read the entry CSCC[C@H](NC(=O)[C@@H](N)CO)C(=O)N[C@@H](Cc1ccc(O)cc1)C(=O)N1CCC[C@H]1C(=O)N[C@@H](CO)C(=O)N[C@@H](CS)C(=O)N[C@@H](CS)C(=O)N[C@@H](CS)C(=O)N[C@H](C(=O)N[C@@H](CCCCN)C(=O)O)[C@@H](C)O [Epitope P13] (H-SMYPSCCCTK-OH; N-terminus and C-terminus assumed) and write its reported inhibition at 5 µM.
Result: 79.8

* * *

Listing: inhibition at 5 µM of selected compounds
- STUDY_TARGET: HLA-A0201 (Homo sapiens, UniProt P04439, D140Y/D185E/D98H/E176V/E277Q/G131W/G231S/I119V/I121R/I166T/I218V/L300P/L318F/N151K/N90K/P208A/P217A/Q86G/Q94H/R138H/R169H/T345S)
- Construct: expressed in transfected cells; host or cells: HMy2.CIR
- EXPERIMENTAL_PROTOCOL: cell-based
- Format: binding
- DETAILS: HLA-A0201 HMy2.CIR cells; competitor peptide 5μM; 24 hours; flow cytometry; read-out: 5μM Inhibition (%)
Residues, ends and D or L forms follow the SMILES beside them.
Just the number in %, nothing appended.

Task: Read the entry CC(C)C[C@H](NC(=O)CN)C(=O)N[C@@H](CO)C(=O)N1CCC[C@H]1C(=O)N[C@H](C(=O)N[C@H](C(=O)N[C@@H](Cc1c[nH]c2ccccc12)C(=O)N[C@@H](CC(C)C)C(=O)N[C@@H](CO)C(=O)N[C@H](C(=O)O)C(C)C)C(C)C)[C@@H](C)O [Epitope P8] and write its reported inhibition at 5 µM.
Result: 6.7

Task: Read the entry CSCC[C@H](NC(=O)[C@H](CC(N)=O)NC(=O)[C@@H](NC(=O)[C@H](CC(N)=O)NC(=O)[C@@H](NC(=O)[C@H](Cc1ccc(O)cc1)NC(=O)[C@@H](N)CO)C(C)C)[C@@H](C)O)C(=O)NCC(=O)N[C@@H](CC(C)C)C(=O)O [Epitope P22] (H-SYVNTNMGL-OH; N-terminus and C-terminus assumed) and write its reported inhibition at 5 µM.
Result: 11.3

* * *

- STUDY_TARGET: HLA-A0207 (Homo sapiens, UniProt P04439, D140Y/D185E/D98H/E176V/E277Q/G131W/G231S/I119V/I121R/I166T/I218V/L300P/L318F/N151K/N90K/P208A/P217A/Q86G/Q94H/R138H/R169H/T345S/Y123C)
- Construct: expressed in transfected cells; host or cells: HMy2.CIR
- EXPERIMENTAL_PROTOCOL: cell-based
- Format: binding
- DETAILS: HLA-A0207 HMy2.CIR cells; competitor peptide 5μM; 24 hours; flow cytometry; read-out: 5μM Inhibition (%)
Residues, ends and D or L forms follow the SMILES beside them.
ENDPOINT: inhibition at 5 µM (%)
Just the number in %, nothing appended.

Task: Read the entry CC(C)C[C@H](NC(=O)[C@H](Cc1ccc(O)cc1)NC(=O)[C@H](CCC(=O)O)NC(=O)[C@H](CC(C)C)NC(=O)[C@@H](NC(=O)[C@@H](NC(=O)[C@@H](N)CCC(=O)O)[C@@H](C)O)C(C)C)C(=O)N[C@H](C(=O)N[C@@H](CO)C(=O)N[C@H](C(=O)O)C(C)C)C(C)C [Epitope P118] (H-ETVLEYLVSV-OH; N-terminus and C-terminus assumed) and write its reported inhibition at 5 µM.
Result: 40

We now examine a further compound.
Task: Read the entry CC[C@H](C)[C@H](N)C(=O)N[C@@H](CC(C)C)C(=O)N[C@@H](CS)C(=O)N[C@@H](Cc1c[nH]c2ccccc12)C(=O)NCC(=O)N[C@@H](CCC(=O)O)C(=O)N[C@@H](CC(C)C)C(=O)N[C@@H](CCSC)C(=O)N[C@@H](CC(N)=O)C(=O)N[C@@H](CC(C)C)C(=O)O [Epitope P74] (H-ILCWGELMNL-OH; N-terminus and C-terminus assumed) and write its reported inhibition at 5 µM.
Result: 45
